- System: U2OS
- TEST DETAILS: Incucyte cell viability with U2OS; note: unitless GR value; below 1 slowed growth and below 0 cell loss
- Assay type: toxicity, cell-based
- EXPERIMENTAL CONTEXT: human, 0 h, 10 µM, compound concentration 10 uM, replicate number 2, timepoint 0 hours
In plain terms, low Growth Rate, meaning strictly below -0.5, gives Condition met, and everything else gives Condition not met.

COMPOUND	QUALITATIVE LABEL
CC(C)C[C@@H](NC(=O)[C@H](Cc1ccccc1)NC(=O)CNC(=O)[C@@H](C)NC(=O)[C@@H](N)Cc1ccc(O)cc1)C(=O)O [DADLE]	Condition not met
COc1c(C)cc(NC(=O)c2nn(Cc3ccc(F)cc3)c3c2CN(C(=O)c2ccc[nH]2)C[C@]3(C)C(N)=O)cc1C	Condition not met
Cc1cc(NC(=O)NCCN2CCC(O)(Cc3ccccc3)CC2)c2ccccc2n1 [PALOSURAN]	Condition not met
Fc1cccc(/C=N/N=C/c2cccc(F)c2)c1	Condition not met
Cl.Cl.OCCOCCN1CCN(C(c2ccccc2)c2ccc(Cl)cc2)CC1 (stereo unspecified) [HYDROXYZINE HYDROCHLORIDE]	Condition met
CN[C@@H]1CCc2[nH]c3ccc(C(N)=O)cc3c2C1.O.O=C(O)CCC(=O)O [FROVATRIPTAN SUCCINATE]	Condition not met
COc1ccc2nc3ccc(OC)cc3c(SCCCN)c2c1.Cl	Condition not met
Cc1ccc(O)c([C@H](CCN(C(C)C)C(C)C)c2ccccc2)c1.O=C(O)C(O)C(O)C(=O)O [TOLTERODINE TARTRATE]	Condition not met
CN(C)c1ccnc2sc3c(=O)n(N4CCCCCC4)cnc3c12	Condition met
CN1CCc2cc(Cl)c(O)cc2[C@@H](c2ccccc2)C1.Cl	Condition met
Cc1noc(C)c1-c1cnc2c(-c3ccc(C(=O)O)cc3)cn([C@@H](C)c3ccccn3)c2c1 [PLX-51107]	Condition not met
O=C(Nc1cc(C(F)(F)F)ccc1N1CCCCC1)c1ccncc1	Condition not met
CNC(=O)[C@H]1O[C@@H](n2cnc3c(NCc4cccc(I)c4)ncnc32)[C@H](O)[C@@H]1O [IB-MECA]	Condition met
COc1cccc2c1c(NS(=O)(=O)c1ccc(Cl)s1)nn2Cc1cccc(CNC(=O)C(C)(C)O)c1	Condition met
O=C1NC(=O)C(c2ccccc2[N+](=O)[O-])=C1Nc1ccc(O)c(Cl)c1	Condition met
c1ccc(NCc2ccc(CNc3ccccn3)cc2)nc1	Condition met
Cc1cccc(S(=O)(=O)N(C)[C@H](C)CCN2CCC(C)CC2)c1.Cl	Condition met
CN1CCN2c3ccccc3Cc3ccccc3C2C1.Cl (stereo unspecified) [MIANSERIN HYDROCHLORIDE]	Condition met
CCc1nnc(NS(=O)(=O)c2ccc(NC(=S)NC(=O)/C=C/c3ccc(F)cc3)cc2)s1	Condition not met
CC(/C=C1\SC(=S)N(CCCC(=O)Nc2ccc(C(=O)O)c(O)c2)C1=O)=C\c1ccccc1	Condition met
COc1ccc2[nH]cc(CCNC(C)=O)c2c1 [MELATONIN]	Condition not met
O=C1NC(Nc2ccccc2)=N/C1=C\c1ccc2c(c1)OCO2	Condition met
O=C(O)CCC/C=C\CC1C(O)CC(O)C1/C=C/C(O)COc1cccc(Cl)c1 (stereo unspecified) [CLOPROSTENOL]	Condition met
NC[C@H](O)c1ccc(O)c(O)c1.O.O=C(O)C(O)C(O)C(=O)O	Condition not met
N#Cc1c(N)nc(SCc2csc(-c3ccc(Cl)cc3)n2)c(C#N)c1-c1ccc(OCCO)cc1 [CAPADENOSON]	Condition not met
CN1CCC(C(=O)c2cccc(NC(=O)c3c(F)cc(F)cc3F)n2)CC1	Condition not met
CC(C)c1cc(-c2ccc(F)c3ccccc23)nc(N)n1	Condition met
C[S+](C)[O-] [DIMETHYL SULFOXIDE]	Condition met
O=c1c2cccn2c2ccccc2n1CCCN1CCC(c2ccc(Cl)cc2)CC1	Condition met
CCc1ccccc1C(=O)Nc1n[nH]c2c(C)c(F)c(C3C(C#N)=C(C)N(C)C(C)=C3C#N)cc12 [BAY-3827]	Condition not met
C[C@H]1CN(C[C@H](Cc2ccccc2)C(=O)NCC(=O)O)CC[C@@]1(C)c1cccc(O)c1 [ALVIMOPAN]	Condition not met
C[C@H](NC(=O)c1c(C(F)F)nn(C)c1Oc1cccc(C(F)(F)F)c1)c1ccc(C(=O)O)cc1 [PALUPIPRANT]	Condition met
CC(=O)O[C@H]1C(=O)[C@@]2(C)[C@H]([C@H](OC(=O)c3ccccc3)[C@]3(O)C[C@H](OC(=O)[C@H](O)[C@@H](NC(=O)c4ccccc4)c4ccccc4)C(C)=C1C3(C)C)[C@]1(OC(C)=O)CO[C@@H]1C[C@@H]2O [PACLITAXEL]	Condition not met
CCC(=O)NC[C@@H]1C[C@H]1c1cccc2c1CCO2 [TASIMELTEON]	Condition not met
COc1ccc2c(c1)C(C(=O)N(Cc1ccc(N(C)C)cc1)c1ccc(C(C)C)cc1)CCC2.Cl (stereo unspecified)	Condition met

====

- Tested on: U2OS
- TEST DETAILS: Incucyte cell viability with U2OS; note: unitless GR value; below 1 slowed growth and below 0 cell loss
- Assay type: toxicity, cell-based
- EXPERIMENTAL CONTEXT: human, 18 h, 10 µM, compound concentration 10 uM, replicate number 2, timepoint 18 hours
Growth Rate: recorded values

COMPOUND	EXPERIMENTAL SYSTEM	Growth Rate
CCc1cc2c(cc1-c1cccc(S(=O)(=O)F)c1)C(C)(C)c1[nH]c3cc(C#N)ccc3c1C2=O	U2OS	0.78
O=C(NCC(=O)N1CC[C@H](N[C@H]2CC[C@@](O)(c3ccc(-c4ncccn4)cn3)CC2)C1)c1cccc(C(F)(F)F)c1	U2OS	0.8
O=C1NC(NC23CC4CC(CC(C4)C2)C3)=N/C1=C\c1ccc2ncsc2c1	U2OS	0.88
CC(C)Oc1ccc(-c2nc(-c3cccc4c3CC[C@@H]4NCCO)no2)cc1C#N	U2OS	0.01
CN[C@@H]1Cc2cccc3[nH]c(=O)n(c23)C1.O=C(O)/C=C\C(=O)O	U2OS	0.85
O=C(CCCc1ccccc1)Nc1nc2ccccc2c(=O)s1	U2OS	0.76
Cc1noc(C)c1-c1cnc2c(-c3ccc(C(=O)O)cc3)cn([C@@H](C)c3ccccn3)c2c1	U2OS	0.96
Cc1sc2c(c1C)C(c1ccc(Cl)cc1)=N[C@@H](CC(=O)NCCCCCCCCNC(=O)COc1cccc3c1C(=O)N(C1CCC(=O)NC1=O)C3=O)c1nnc(C)n1-2 (stereo partly drawn)	U2OS	0.72

====

- Test system: U2OS
- TEST DETAILS: Incucyte cell viability with U2OS; note: unitless GR value; below 1 slowed growth and below 0 cell loss
- Type: toxicity, cell-based
- EXPERIMENTAL CONTEXT: human, 24 h, 10 µM, compound concentration 10 uM, replicate number 1, timepoint 24 hours
Growth Rate: recorded values
ASSAY ENDPOINT: Growth Rate

> print(dat)
                                   molecule  experimental.system  assay.endpoint  recorded.result
1  COCCCN1CCC(NC(=O)c2cc(Cl)c(N)c3c2OCC3)CC1 [PRUCALOPRIDE]                 U2OS     Growth Rate              0.1
2  Oc1c(CN2CCN(c3ccccn3)CC2)cc(Cl)c2cccnc12                 U2OS     Growth Rate            -0.07
3  Cc1c(C(=O)NN2CCCCC2)nn(-c2ccc(Cl)cc2Cl)c1-c1ccc(Cl)cc1                 U2OS     Growth Rate              0.8
4  Cc1ccc(Cn2nc(C(=O)N[C@@H]3C(C)(C)[C@@H]4CC[C@@]3(C)C4)cc2-c2ccc(Cl)c(C)c2)cc1                 U2OS     Growth Rate             0.86
5  COc1c(Nc2ccc(S(C)(=O)=O)nc2C)ncnc1OC1CCN(C(=O)OC(C)C)CC1                 U2OS     Growth Rate                1
6  CC(C)COc1ccc(CNC(=O)N(Cc2ccc(F)cc2)C2CCN(C)CC2)cc1                 U2OS     Growth Rate              0.5
7  C[N+]1(C)[C@@H]2C[C@@H](OC(=O)C(O)(c3cccs3)c3cccs3)C[C@H]1[C@@H]1O[C@@H]12.O.[Br-] [TIOTROPIUM BROMIDE]                 U2OS     Growth Rate             0.86
8  NCCc1c[nH]c2ccc(C(N)=O)cc12.O=C(O)/C=C\C(=O)O                 U2OS     Growth Rate             0.83

====

Growth Rate: recorded values
- Tested on: Fibroblast
- TEST DETAILS: Incucyte cell viability with human fibroblast; note: unitless GR value; below 1 slowed growth and below 0 cell loss
- Type: toxicity, cell-based
- EXPERIMENTAL CONTEXT: 0 h, 10 µM, compound concentration 10 uM, replicate number 2, timepoint 0 hours
Where a SMILES comes first, the peptide text is derived from it. Bridges are numbered along the chain shown (N, C = ends). [ ]: non-standard residue; d: D form. The star is where a group is joined. dPhe(4-NHCONH2) = NC(=O)Nc1ccc(C[C@@H](N)C(=O)O)cc1; Dihydroorotyl(S) = O=C1C[C@@H](C(=O)*)NC(=O)N1; dPhe(4-Cl) = N[C@H](Cc1ccc(Cl)cc1)C(=O)O; Phe(4-NH2) = Nc1ccc(C[C@H](N)C(=O)O)cc1; d2Nal = N[C@H](Cc1ccc2ccccc2c1)C(=O)O; Lys(iPr) = CC(C)NCCCC[C@H](N)C(=O)O; d3Pal = N[C@H](Cc1cccnc1)C(=O)O; Orn = NCCC[C@H](N)C(=O)O; Mpa = O=C(O)CCS

COMPOUND	Growth Rate
COc1cc2nc(N(C)CCCNC(=O)C3CCCO3)nc(N)c2cc1OC.Cl (stereo unspecified) [ALFUZOSIN HYDROCHLORIDE]	0.06
CCOc1ccc(C[C@H]2NC(=O)CCSSC[C@@H](C(=O)N3CCC[C@H]3C(=O)N[C@@H](CCCN)C(=O)NCC(N)=O)NC(=O)[C@H](CC(N)=O)NC(=O)[C@H]([C@@H](C)O)NC(=O)[C@H]([C@@H](C)CC)NC2=O)cc1 [ATOSIBAN] ([Mpa][dY](Et)ITNCP[Orn]G-NH2; disulfide 1-6)	0.42
CCC(=O)NC[C@@H]1C[C@H]1c1cccc2c1CCO2	0.97
CSc1cc2c(cc1C(F)(F)F)N(C(=O)Nc1cccnc1)CC2	0.46
COc1ccccc1N1CCN(CCCCNC(=O)c2ccc3ccccc3c2)CC1.Cl	-0.14
Cl.Cl.OCCOCCN1CCN(C(c2ccccc2)c2ccc(Cl)cc2)CC1 (stereo unspecified) [HYDROXYZINE HYDROCHLORIDE]	0.31
Cc1c(CC(=O)O)c2cccnc2n1Cc1ccc(S(C)(=O)=O)cc1C(F)(F)F	0.97
COC[C@@H](CC(C)C)NC1=N/C(=C\c2ccc3ncsc3c2)C(=O)N1C	-0.23
NC(N)=Nc1nc(CSCCC(N)=NS(N)(=O)=O)cs1	0.42
O=C(O)COc1cccc(-c2ocnc2-c2nc(-c3ccccc3)c(-c3ccccc3)o2)c1	0.64
Cc1cc(NC(=O)NCCN2CCC(O)(Cc3ccccc3)CC2)c2ccccc2n1	0.27
C[C@@H]1CN(Cc2ccc(F)cc2)CCN1C(=O)COc1ccc(Cl)cc1NC(N)=O [BX 471 FREE BASE]	0.24
CC(=O)N[C@H](Cc1ccc2ccccc2c1)C(=O)N[C@H](Cc1ccc(Cl)cc1)C(=O)N[C@H](Cc1cccnc1)C(=O)N[C@@H](CO)C(=O)N[C@@H](Cc1ccc(NC(=O)[C@@H]2CC(=O)NC(=O)N2)cc1)C(=O)N[C@H](Cc1ccc(NC(N)=O)cc1)C(=O)N[C@@H](CC(C)C)C(=O)N[C@@H](CCCCNC(C)C)C(=O)N1CCC[C@H]1C(=O)N[C@H](C)C(N)=O [DEGARELIX] (Ac-[d2Nal][dPhe(4-Cl)][d3Pal]S[Phe(4-NH2)](Dihydroorotyl(S))[dPhe(4-NHCONH2)]L[Lys(iPr)]P[dA]-NH2)	-0.9
Cl.N=C(N)NC(=O)Cc1c(Cl)cccc1Cl [GUANFACINE HYDROCHLORIDE]	0.01
Cl.FC(F)(F)c1ccc(N2CCNCC2)nc1Cl	0.43
Br.Br.c1ncc(CC2CCNCC2)[nH]1	0.06
CC(C)C[C@@H](NC(=O)[C@H](Cc1ccccc1)NC(=O)CNC(=O)[C@@H](C)NC(=O)[C@@H](N)Cc1ccc(O)cc1)C(=O)O	-0.04
CCNC1(C(N)=O)CCN(c2ncnc3c2nc(-c2ccccc2Cl)n3-c2ccc(Cl)cc2)CC1	0.22
Cc1ccc(/C(=C\CN2CCCC2)c2ccccn2)cc1	0.74
CSCC[C@H](NC=O)C(=O)N[C@@H](CC(C)C)C(=O)N[C@@H](Cc1ccccc1)C(=O)O	0.65
Cc1ccc(-c2ccc(F)cc2COc2ccc(CCC(=O)O)cc2)cc1	0.45
CN[C@@H]1C[C@H]2O[C@@](C)([C@@H]1OC)n1c3ccccc3c3c4c(c5c6ccccc6n2c5c31)C(=O)NC4	-0.7
COC(=O)[C@H](CCCNC(=N)N)NC(=O)CCCc1c(-c2ccccc2)[nH]c2c(F)cc(F)cc12.O=C(O)C(F)(F)F	0.86
CCCCC(=O)N(Cc1ccc(-c2ccccc2-c2nnn[nH]2)cc1)[C@H](C(=O)O)C(C)C	0.94
CCN1C(=CC(C)=O)Sc2ccc(OC)cc21	0.29
Cl.NCCc1c[nH]c2ccc(O)cc12 [SEROTONIN HYDROCHLORIDE]	0.19
CCCN(CCC)CCc1cccc2c1CC(=O)N2.Cl [ROPINIROLE HYDROCHLORIDE]	-0.1
CCCn1c(=O)c2[nH]c(C3CCCC3)nc2n(CCC)c1=O	0.38
CNC[C@H](O)c1ccc(O)c(O)c1 [EPINEPHRINE]	-0.14
CCc1nnc(NS(=O)(=O)c2ccc(NC(=S)NC(=O)/C=C/c3ccc(F)cc3)cc2)s1	-0.01
CC(C)(C)c1ccc(CSc2cnn(C(C)(C)C)c(=O)c2Cl)cc1	-0.26
